The origin of these recorded values is paper PMC6112376.

System: rat primary hepatocytes
assayRemarks: MMP assay in rat primary hepatocytes
conditionSummary: rat hepatocytes; mean ± SD of three experiments

compound	MMP assays efficacy (%) Rat Hepatocytes
CCCCCCCC[n+]1ccn(C)c1.O=S(=O)([O-])C(F)(F)F [1-Methyl-3-octylimidazolium trifluoromethanesulfonate]	-82±36%
CCCCCCCCCOC(=O)c1ccc(O)cc1 [Nonylparaben]	inactive
CC/C=C\C/C=C\C/C=C\CCCCCCCC(=O)OCC [Ethyl linolenate]	inactive

###

System: Caenorhabditis elegans strain PE255
assayRemarks: In vivo C. elegans ATP status assay
conditionSummary: 75 µM
Response field label: string, one of 1 (yes) (LUM: mean difference in luminescence (ATP content) relative to plate controls strictly below 1) or 0 (no).

Task: # check: LUM: mean difference in luminescence (ATP content) relative to plate controls < 1 for O=C(Nc1ccc([N+](=O)[O-])cc1Cl)c1cc(Cl)ccc1O [Niclosamide, reference compound]
Output: 1 (yes)

Task: # check: LUM: mean difference in luminescence (ATP content) relative to plate controls < 1 for CC(C)[C@@H]1NC(=O)[C@H](C)OC(=O)[C@@H](C(C)C)NC(=O)[C@@H](C(C)C)OC(=O)[C@H](C(C)C)NC(=O)[C@H](C)OC(=O)[C@@H](C(C)C)NC(=O)[C@@H](C(C)C)OC(=O)[C@H](C(C)C)NC(=O)[C@H](C)OC(=O)[C@@H](C(C)C)NC(=O)[C@@H](C(C)C)OC1=O [Valinomycin]
Output: 1 (yes)

Task: # check: LUM: mean difference in luminescence (ATP content) relative to plate controls < 1 for O=C(Nc1ccc(Cl)cc1)Nc1ccc(Cl)c(Cl)c1 [Triclocarban]
Output: 0 (no)

Task: # check: LUM: mean difference in luminescence (ATP content) relative to plate controls < 1 for O=C1c2ccccc2C(=O)C1C(=O)C(c1ccccc1)c1ccc(Cl)cc1 (stereo not drawn) [Chlorophacinone]
Output: 0 (no)

Task: # check: LUM: mean difference in luminescence (ATP content) relative to plate controls < 1 for Cl.N=C1C=CC(=C(c2ccc(N)cc2)c2ccc(N)cc2)C=C1 [C.I. Basic red 9 monohydrochloride]
Output: 0 (no)

Task: # check: LUM: mean difference in luminescence (ATP content) relative to plate controls < 1 for `Cc1cc(Cc2cc(C)cc(C(C)(C)C)c2O)c(O)c(C(C)(C)C)c1`
Output: 1 (yes)
